Numbers sourced from patent US11344510B2.

Assignment: determine reported microsomal CLint at 1 μM for the given compounds.
experiment: MLM stability (High Activity); format: in vitro ADME, BALB/c mice; details: male, BALB/c, mouse, liver microsomes, pH 7.4, Condition 2 (High Activity), 1.0 mg protein/mL
One number for each entry, in µL/min/mg.

Query (compound): O=C1CCCC[C@]1(c1ccccc1)N1CCCCC1 [Compound 26R] ; field requested: microsomal CLint at 1 μM
65

Now consider COCCNC1(c2ccccc2)CCCCC1=O (racemic) .
41

Another: N[C@@]1(c2ccccc2)CCCCC1=O [Compound 11R, (R)-2-amino-2-phenyl-cyclohexan-1-one]
4

What would you report for CNC1(c2ccccc2Cl)CCCCC1=O (racemic) [rac-ketamine, racemic ketamine, reference compound] ?
75

Give microsomal CLint at 1 μM for each of the items listed below.
1. O=C1CCCC[C@]1(NCCF)c1ccccc1 [Compound 86S]
2. CN[C@]1(c2ccccc2)CCCCC1=O [Compound 14S]
3. O=C1CCCC[C@@]1(NCCF)c1ccccc1 [Compound 86R]

1: 82; 2: 3; 3: 113

Parameter requested: microsomal CLint at 1 μM. Apply to each item below.
1. CN[C@@]1(c2ccccc2)CCCCC1=O [Compound 14R]
2. O=C1CCCC[C@]1(NCCO)c1ccccc1 [Compound 30S]

1: 4; 2: 162

Quick batch: microsomal CLint at 1 μM for everything below.
1. N[C@]1(c2ccccc2)CCCCC1=O [Compound 11S, (S)-2-amino-2-phenyl-cyclohexan-1-one]
2. O=C1CCCC[C@@]1(NCCO)c1ccccc1 [Compound 30R]

1: 3; 2: 106

Give microsomal CLint at 1 μM for all compounds that follow.
1. O=C1CCCC[C@]1(c1ccccc1)N1CCC1 [Compound 84R]
2. [2H]C([2H])([2H])N[C@@]1(c2ccccc2)CCCCC1=O [Compound 88R]
3. [2H]C([2H])([2H])N[C@]1(c2ccccc2)CCCCC1=O [Compound 88S]
4. O=C1CCCCC1(c1ccccc1)N1CCCC1 (racemic)
5. CN[C@]1(c2ccccc2C)CCCCC1=O [Compound 38S]
6. CN[C@@]1(c2ccccc2C)CCCCC1=O [Compound 38R]

[30, 7, 6, 20, 31, 23]

Count: 4. Required value per item: microsomal CLint at 1 μM.
1. O=C1CCCC[C@@]1(c1ccccc1)N1CCCCC1 [Compound 26S]
2. CN[C@]1(c2cccc(F)c2)CCCCC1=O [Compound 19S]
3. CN[C@@]1(c2cccc(F)c2)CCCCC1=O [Compound 19R]
4. O=C1CCCC[C@@]1(c1ccccc1)N1CCC1 [Compound 84S]

56
11
12
36
